test: protein stability index of a GFP-peptide fusion (yeast GPS) (PSI 1-4); higher = more stable; sorted into four equal gates, so the index is relative within each strain; details: pdr5∆
Label true when protein stability index >= 3; otherwise false.

Quick check: does TQEFSKNYTTETDNEMN [SIR3] have protein stability index greater than or equal to 3? true

# repeat for QSSFAGTWSAKEAVFKS [FAS2] true

Same question, NDFANNLPKEGDIVLTR [CSL4] this time true

Now consider INVETVYDIMALEDEER [BRR2] and answer again. false

# next sequence below
Could you tell me if the measured protein stability index of KMYSDDTLKDISTSFCF [BRN1] reaches 3 or more? true

Each recorded value in this set is attributed to the supplement of paper PMC9732359.
